tested on: biotinyl-Ile-oxazolone; assay: self-aminoacylation, catalytic enhancement (BIO) (fold over background); higher = more active; k-Seq, kA / k0A0; sequences stand for … in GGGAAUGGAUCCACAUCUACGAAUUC…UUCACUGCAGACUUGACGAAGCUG
Variants at the floor of the assay were thinned out.
For each of the sequences below, state its self-aminoacylation.
The answer should be a number; do not append a unit.

Query self-aminoacylation on biotinyl-Ile-oxazolone for UUUCACCUACGUCAUCGGGUG [Fam2.2 aminoacylation ribozyme variant]
2.88

Query self-aminoacylation on biotinyl-Ile-oxazolone for AAGUCUGCAAAUAGUCGCAAG [Fam3.1 aminoacylation ribozyme variant]
0.902

Query self-aminoacylation on biotinyl-Ile-oxazolone for AAGUUUCCUAAUUGUCGCAAG [Fam3.1 aminoacylation ribozyme variant]
1.47

Query self-aminoacylation on biotinyl-Ile-oxazolone for ACUAACCUAGGUCAUCGGGUG [Fam2.2 aminoacylation ribozyme variant]
5.7

Query self-aminoacylation on biotinyl-Ile-oxazolone for GUUCACCUAGGUCCUCGGGUG [Fam2.2 aminoacylation ribozyme variant]
3.49

Query self-aminoacylation on biotinyl-Ile-oxazolone for CUACUACAAACAAUCAGUCUG [Fam1A.1 aminoacylation ribozyme variant]
0.657

Query self-aminoacylation on biotinyl-Ile-oxazolone for AAGCUUGCAAAUAGUCGCAAG [Fam3.1 aminoacylation ribozyme variant]
2.14

Query self-aminoacylation on biotinyl-Ile-oxazolone for AUUCACCUAGGUCAACGGGCG [Fam2.2 aminoacylation ribozyme variant]
2.59

Query self-aminoacylation on biotinyl-Ile-oxazolone for CCACACUUCAAGCAUUGGGUC [Fam1B.1 aminoacylation ribozyme variant]
1.04

Query self-aminoacylation on biotinyl-Ile-oxazolone for AUAUUUGCUAAUAGUCGCAAG [Fam3.1 aminoacylation ribozyme variant]
1.57

Query self-aminoacylation on biotinyl-Ile-oxazolone for CCACUUCAAACAAUCGGGCUG [Fam1A.1 aminoacylation ribozyme variant]
2.12

Query self-aminoacylation on biotinyl-Ile-oxazolone for CUACUUCAAACCAUCCGUCUG [Fam1A.1 aminoacylation ribozyme variant]
0.891

Query self-aminoacylation on biotinyl-Ile-oxazolone for CUACUUCAAACAAUCGUUGUG [Fam1A.1 aminoacylation ribozyme variant]
1.17

Query self-aminoacylation on biotinyl-Ile-oxazolone for CAGUUUGCUAAUAGCCGCAAG [Fam3.1 aminoacylation ribozyme variant]
1.86

Query self-aminoacylation on biotinyl-Ile-oxazolone for AUUCACUUAGGGCAUCGGGUG [Fam2.2 aminoacylation ribozyme variant]
2.91

Query self-aminoacylation on biotinyl-Ile-oxazolone for ACGUUUGCUCAUAGUCGCAAG [Fam3.1 aminoacylation ribozyme variant]
1.89

Query self-aminoacylation on biotinyl-Ile-oxazolone for CCACACUUCUAGCAAUCGGGC [Fam1B.1 aminoacylation ribozyme variant]
2.09

Query self-aminoacylation on biotinyl-Ile-oxazolone for AUACUUCAUACAAUCGGUCUG [Fam1A.1 aminoacylation ribozyme variant]
1.02

###

For each of the sequences below, state its self-aminoacylation.
test system: biotinyl-Phe-oxazolone; test: self-aminoacylation, catalytic enhancement (BFO) (fold over background); higher = more active; k-Seq, kA / k0A0; sequences stand for … in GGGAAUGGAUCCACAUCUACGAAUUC…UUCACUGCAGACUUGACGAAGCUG
Variants at the floor of the assay were thinned out.
The answer should be a number; do not append a unit.

Please give the measured self-aminoacylation for this sequence: AUUCACCGAGGUCAUCGGGGG [Fam2.2 aminoacylation ribozyme variant]
7.01

Please give the measured self-aminoacylation for this sequence: AUUACCCUGAUCAUCUAGUGA [Fam2.1 aminoacylation ribozyme variant]
56.9

Please give the measured self-aminoacylation for this sequence: UAGGUUGCUAAUAGUCGCAAG [Fam3.1 aminoacylation ribozyme variant]
1.91

Please give the measured self-aminoacylation for this sequence: AAUACCCUGGUAAUCGAGUGA [Fam2.1 aminoacylation ribozyme variant]
38.5

Please give the measured self-aminoacylation for this sequence: ACGCACUUCAAGCAAUCGGUC [Fam1B.1 aminoacylation ribozyme variant]
33.8

###

tested on: biotinyl-Leu-oxazolone; assay: self-aminoacylation, catalytic enhancement (BLO) (fold over background); higher = more active; k-Seq, kA / k0A0; sequences stand for … in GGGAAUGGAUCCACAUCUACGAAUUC…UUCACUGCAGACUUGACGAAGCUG
Variants at the floor of the assay were thinned out.
Please note: Yes applies when self-aminoacylation is 2 or greater, and No applies otherwise.

# bool: self-aminoacylation of AUUCACUUAGGGCAUCGGGUG [Fam2.2 aminoacylation ribozyme variant] >= 2
Yes

# bool: self-aminoacylation of CCGCACUUCAGGCAAUCGGUC [Fam1B.1 aminoacylation ribozyme variant] >= 2
Yes

# bool: self-aminoacylation of AUUACCCUGCUCUUCGAGUGA [Fam2.1 aminoacylation ribozyme variant] >= 2
Yes

# bool: self-aminoacylation of UUACUUCAAACAAUCGCUCUG [Fam1A.1 aminoacylation ribozyme variant] >= 2
No

# bool: self-aminoacylation of AUUCACUUUGGUCAUCGGGUG [Fam2.2 aminoacylation ribozyme variant] >= 2
Yes

# bool: self-aminoacylation of GUCCUUCAAACAAUCGGUCUG [Fam1A.1 aminoacylation ribozyme variant] >= 2
No

# bool: self-aminoacylation of AUUACCCUGAUCAUCGAGUAA [Fam2.1 aminoacylation ribozyme variant] >= 2
No

# bool: self-aminoacylation of AAGCUUGCAAAUAGUCGCAAG [Fam3.1 aminoacylation ribozyme variant] >= 2
Yes

# bool: self-aminoacylation of AAGAUUACUAAUAGUCGCAAG [Fam3.1 aminoacylation ribozyme variant] >= 2
No

###

system: biotinyl-Leu-oxazolone; assay: self-aminoacylation, catalytic enhancement (BLO) (fold over background); higher = more active; k-Seq, kA / k0A0; sequences stand for … in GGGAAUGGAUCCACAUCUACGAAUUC…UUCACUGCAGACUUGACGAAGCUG
Variants at the floor of the assay were thinned out.
For each of the sequences below, state its self-aminoacylation.
The answer should be a number; do not append a unit.

Please give the measured self-aminoacylation for this sequence: AUUCCCCUAGGUGAUCGGGUG [Fam2.2 aminoacylation ribozyme variant]
11.8

Please give the measured self-aminoacylation for this sequence: AUUCACCUAGGUCAUAGGUUG [Fam2.2 aminoacylation ribozyme variant]
0.9

Please give the measured self-aminoacylation for this sequence: AUUACCAUGGUCACCGAGUGA [Fam2.1 aminoacylation ribozyme variant]
9.1

Please give the measured self-aminoacylation for this sequence: CCACACUUCAACCAAUCAGUC [Fam1B.1 aminoacylation ribozyme variant]
1.04

Please give the measured self-aminoacylation for this sequence: ACUACCCUGGUCAUCCAGUGA [Fam2.1 aminoacylation ribozyme variant]
5.01

Please give the measured self-aminoacylation for this sequence: AAGUUCACUAAUAGUCGCAAG [Fam3.1 aminoacylation ribozyme variant]
1.8

Please give the measured self-aminoacylation for this sequence: CCUCACUUCAGGCAAUCGGUC [Fam1B.1 aminoacylation ribozyme variant]
0.947

Please give the measured self-aminoacylation for this sequence: AAGUAUGCUAAUAGUCGCAAU [Fam3.1 aminoacylation ribozyme variant]
1.64

Please give the measured self-aminoacylation for this sequence: AUUCACCGAGGUCAUCUGGUG [Fam2.2 aminoacylation ribozyme variant]
5.72

Please give the measured self-aminoacylation for this sequence: AUUACCCUCGUCAUCGACUGA [Fam2.1 aminoacylation ribozyme variant]
0.644

Please give the measured self-aminoacylation for this sequence: AUUCAGCUAGGUCAUCGGGGG [Fam2.2 aminoacylation ribozyme variant]
3.48

Please give the measured self-aminoacylation for this sequence: AUUCACCCAUGUCAUCGGGUG [Fam2.2 aminoacylation ribozyme variant]
7.33

Please give the measured self-aminoacylation for this sequence: AGGUUUACUAAUAGUCGCAAG [Fam3.1 aminoacylation ribozyme variant]
1.49

Please give the measured self-aminoacylation for this sequence: AUUACCCUGGUCACCGAGUCA [Fam2.1 aminoacylation ribozyme variant]
1.75

Please give the measured self-aminoacylation for this sequence: AUUCAUCUAGGUCAUCGCGUG [Fam2.2 aminoacylation ribozyme variant]
18.5

Please give the measured self-aminoacylation for this sequence: AUUUACCUGGGUCAUCGGGUG [Fam2.2 aminoacylation ribozyme variant]
22.1

Please give the measured self-aminoacylation for this sequence: AACUUUGCUAACAGUCGCAAG [Fam3.1 aminoacylation ribozyme variant]
3.43

Please give the measured self-aminoacylation for this sequence: CUUACCCUGGUCAUCGAGUAA [Fam2.1 aminoacylation ribozyme variant]
4.25

###

system: biotinyl-Trp-oxazolone; assay: self-aminoacylation, catalytic enhancement (BWO) (fold over background); higher = more active; k-Seq, kA / k0A0; sequences stand for … in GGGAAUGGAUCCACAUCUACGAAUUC…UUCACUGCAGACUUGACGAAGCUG
Fewer inactive variants are shown than the library holds.
Assign a class from recorded self-aminoacylation; defined classes: Low = under 1, Mid = from 1 up to 4, High = 4 and over

Please indicate the class for CUACUUCAAACAAUCCUUCUG [Fam1A.1 aminoacylation ribozyme variant] based on its self-aminoacylation.
Low

Please indicate the class for AUUCGACUAGGUCAUCGGGUG [Fam2.2 aminoacylation ribozyme variant] based on its self-aminoacylation.
High

Please indicate the class for CUACUUCAAAAAUUCGGUCUG [Fam1A.1 aminoacylation ribozyme variant] based on its self-aminoacylation.
Mid

Please indicate the class for AUUACCCUGCUCAGCGAGUGA [Fam2.1 aminoacylation ribozyme variant] based on its self-aminoacylation.
High

Please indicate the class for CCACGCUUCAAGCAAACGGUC [Fam1B.1 aminoacylation ribozyme variant] based on its self-aminoacylation.
Low

Please indicate the class for AUUACCCUGGUCAUGGAAUGA [Fam2.1 aminoacylation ribozyme variant] based on its self-aminoacylation.
Mid

Please indicate the class for CCACACUUUAAGCAAUAGGUC [Fam1B.1 aminoacylation ribozyme variant] based on its self-aminoacylation.
Low

Please indicate the class for CUACUUCAAACACUCAGUCUG [Fam1A.1 aminoacylation ribozyme variant] based on its self-aminoacylation.
Low

Please indicate the class for CUACUGCUAACAAUCGGUCUG [Fam1A.1 aminoacylation ribozyme variant] based on its self-aminoacylation.
Low

Please indicate the class for AUUAAACUAGGUCAUCGGGUG [Fam2.2 aminoacylation ribozyme variant] based on its self-aminoacylation.
High

Please indicate the class for AACUUUGGUAAUAGUCGCAAG [Fam3.1 aminoacylation ribozyme variant] based on its self-aminoacylation.
Mid

Please indicate the class for AUGACCCUGGUCAACGAGUGA [Fam2.1 aminoacylation ribozyme variant] based on its self-aminoacylation.
High

Please indicate the class for AUUUACCUAGGUCAACGGGUG [Fam2.2 aminoacylation ribozyme variant] based on its self-aminoacylation.
Mid

Please indicate the class for AUUCACCUAGGUGAUCGGGUG [Fam2.2 aminoacylation ribozyme variant] based on its self-aminoacylation.
Mid

Please indicate the class for GUUCACCUAGGUCAUCGGAUG [Fam2.2 aminoacylation ribozyme variant] based on its self-aminoacylation.
Low

Please indicate the class for AUUCACCUAGGUCAUCAGGAG [Fam2.2 aminoacylation ribozyme variant] based on its self-aminoacylation.
Low

Please indicate the class for GUAUUUCAAACAAUCGGUCUG [Fam1A.1 aminoacylation ribozyme variant] based on its self-aminoacylation.
Mid

Please indicate the class for AUUAGCCCGGUCAUCGAGUGA [Fam2.1 aminoacylation ribozyme variant] based on its self-aminoacylation.
High

Please indicate the class for AUUCACCUAGGUCAUCAGGUG [Fam2.2 aminoacylation ribozyme variant] based on its self-aminoacylation.
Mid

Please indicate the class for CUACUCCAAACAAUCCGUCUG [Fam1A.1 aminoacylation ribozyme variant] based on its self-aminoacylation.
Low

Please indicate the class for CUACUUCCAACAGUCGGUCUG [Fam1A.1 aminoacylation ribozyme variant] based on its self-aminoacylation.
Low

Please indicate the class for AUUCACCUAGGUCAUGGCGUG [Fam2.2 aminoacylation ribozyme variant] based on its self-aminoacylation.
High

Please indicate the class for AAGGUUGGUAAUAGUCGCAAG [Fam3.1 aminoacylation ribozyme variant] based on its self-aminoacylation.
Mid

Please indicate the class for CCACACUUCAUGCAAUCGGUU [Fam1B.1 aminoacylation ribozyme variant] based on its self-aminoacylation.
Low

Please indicate the class for CCACACUUCAAGCAAUGGGUU [Fam1B.1 aminoacylation ribozyme variant] based on its self-aminoacylation.
Mid

Please indicate the class for AAGUUUACUAAUAGUCGCAAA [Fam3.1 aminoacylation ribozyme variant] based on its self-aminoacylation.
Mid

Please indicate the class for CCACACUUCAAUCAAUCGGCC [Fam1B.1 aminoacylation ribozyme variant] based on its self-aminoacylation.
Mid

Please indicate the class for CCUCACUUCGAGCAAUCGGUC [Fam1B.1 aminoacylation ribozyme variant] based on its self-aminoacylation.
Mid

Please indicate the class for AUUCACCUAGGUCAUGAGGUG [Fam2.2 aminoacylation ribozyme variant] based on its self-aminoacylation.
Mid

Please indicate the class for AUGCACCUAGAUCAUCGGGUG [Fam2.2 aminoacylation ribozyme variant] based on its self-aminoacylation.
Mid

Please indicate the class for ACUCACCAAGGUCAUCGGGUG [Fam2.2 aminoacylation ribozyme variant] based on its self-aminoacylation.
High

Please indicate the class for AUUCACCUAGUUGAUCGGGUG [Fam2.2 aminoacylation ribozyme variant] based on its self-aminoacylation.
High

Please indicate the class for AUUCACUUUGGUCAUCGGGUG [Fam2.2 aminoacylation ribozyme variant] based on its self-aminoacylation.
High

Please indicate the class for AUUAACCUAGGUGAUCGGGUG [Fam2.2 aminoacylation ribozyme variant] based on its self-aminoacylation.
Mid

Please indicate the class for AUUACCCUACUCAUCGAGUGA [Fam2.1 aminoacylation ribozyme variant] based on its self-aminoacylation.
High
